Target: Alpha-2A adrenergic receptor (Homo sapiens, UniProt P08913); note: in other assays of this panel Not Active means under 50% inhibition at 10 µM
Sequence (P08913 whole entry): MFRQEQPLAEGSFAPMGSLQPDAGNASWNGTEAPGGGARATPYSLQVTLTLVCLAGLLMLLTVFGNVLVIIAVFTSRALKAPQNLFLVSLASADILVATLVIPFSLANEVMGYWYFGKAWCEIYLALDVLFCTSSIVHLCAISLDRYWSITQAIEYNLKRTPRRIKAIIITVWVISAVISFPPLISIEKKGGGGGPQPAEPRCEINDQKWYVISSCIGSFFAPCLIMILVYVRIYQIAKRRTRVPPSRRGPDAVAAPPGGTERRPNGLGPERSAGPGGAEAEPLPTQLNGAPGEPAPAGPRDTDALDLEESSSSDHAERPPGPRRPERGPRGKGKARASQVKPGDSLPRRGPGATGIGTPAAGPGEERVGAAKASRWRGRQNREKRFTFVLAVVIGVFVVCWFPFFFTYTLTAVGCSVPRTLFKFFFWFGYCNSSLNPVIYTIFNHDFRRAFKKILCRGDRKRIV
Assay type: cell membranes, Sf9, Membrane
Conditions: sf9
parameter-measured: IC50

[Q] Requested field: IC50. Item: CC1(C)O[C@@H]2C[C@H]3[C@@H]4C[C@H](F)C5=CC(=O)C=C[C@]5(C)[C@H]4[C@@H](O)C[C@]3(C)[C@]2(C(=O)CO)O1 [FLUNISOLIDE]
[A] Not Active

[Q] Item `Cc1onc(-c2ccccc2)c1-c1ccc(S(N)(=O)=O)cc1` has what recorded IC50?
[A] Not Active

[Q] Recorded IC50 for `COc1cc2c(c3oc(=O)c4c(c13)CCC4=O)[C@@H]1C=CO[C@@H]1O2` , please?
[A] Not Active

[Q] What measured IC50 goes with `CCCC(CCC)C(=O)O` ?
[A] Not Active

[Q] Reported IC50 for `O=S(=O)([O-])CCS.[Na+]` : what is it?
[A] Not Active

[Q] Would you kindly share the measured IC50 for `Nc1ccn([C@@H]2CS[C@H](CO)O2)c(=O)n1` ?
[A] Not Active

[Q] Consider the molecule C[C@]12CC[C@@H]3c4ccc(OC(=O)c5ccccc5)cc4CC[C@H]3[C@@H]1CC[C@@H]2O [ESTRADIOL BENZOATE] and give its measured IC50.
[A] Not Active

[Q] IC50 lookup needed for COC(=O)C1=C(C)NC(C)=C(C(=O)OCC(C)C)C1c1ccccc1[N+](=O)[O-] (stereo not drawn) , thanks.
[A] Not Active

[Q] Would you mind telling me what IC50 value was observed for CC(C)Cc1ccc(C(C)C(=O)O)cc1 (stereo not drawn) ?
[A] Not Active

[Q] Bench note: what IC50 did `O=C1CC2(CCCC2)CC(=O)N1CCCCN1CCN(c2ncccn2)CC1` show?
[A] Not Active

---
[Q] Find the recorded IC50 belonging to `O=C(O)Cc1ccccc1Nc1c(Cl)cccc1Cl` and report it.
[A] Not Active

[Q] For the molecule shown here, [Cl-].[Cl-].[Zn+2] [ZINC CHLORIDE] , give the reported IC50.
[A] Not Active

[Q] Fill in: IC50 of `COc1ccc2c(c1)[C@]13CCCC[C@@H]1[C@H](C2)N(C)CC3` is ___
[A] Not Active
